System: Ruminococcus gnavus DSM 108212
Experiment: fold change of 2-Phenylethylamine concentration vs plate DMSO controls (fold change (ratio)); higher = more amine produced, active = hit call of the paper (significant change in both replicates, either direction)
Details: 20 µM; incubation time: 27 h, anaerobic, 37 °C
Where a name gives a salt, the structure may show the parent alone.
Assay metric: fold change of 2-Phenylethylamine concentration
Please give only the number in your answer, with no unit.

Asked: Any idea what its fold change of 2-Phenylethylamine concentration is? The compound is C=C(C)[C@@H]1[C@H]2OC(=O)[C@@H]1[C@]1(O)C[C@H]3O[C@]34C(=O)O[C@H]2[C@]14C [Picrotoxinin]
Given back: 1.03

Asked: And then NCCc1c[nH]c2ccc(O)cc12 [Serotonin hydrochloride] , what is it?
Given back: 0.93

Asked: And then O=C(O)COc1ccc(Cl)cc1Cl , what is it?
Given back: 0.929

Asked: Please do the same for CC[C@@]1([C@@H]2O[C@@H]([C@H]3O[C@@](O)(CO)[C@H](C)C[C@@H]3C)C[C@@H]2C)CC[C@H]([C@]2(C)CC[C@]3(C[C@H](O)[C@@H](C)[C@@H]([C@@H](C)[C@@H](OC)[C@H](C)C(=O)O)O3)O2)O1 [Monensin sodium salt] as well.
Given back: 0.0948

Asked: Try the compound CC[C@@H](C(N)=O)N1CCCC1=O [Levetiracetam]
Given back: 1.07

Asked: Also C=C[C@H]1CN2CC[C@H]1C[C@H]2[C@H](OC(=O)OCC)c1ccnc2ccc(OC)cc12 [Quinine ethyl carbonate] ?
Given back: 1.03

Asked: Further, for c1ccc2c(c1)cc1ccc3cccc4ccc2c1c34 [Benzo[a]pyrene] ?
Given back: 1.04

Asked: How about this compound: CN/C(=N/CC1CCOC1)N[N+](=O)[O-] (stereo unspecified)
Given back: 0.994

Asked: Input O=S(=O)(c1ccc(O)cc1)c1ccc(O)cc1 [Bisphenol S]
Given back: 0.946

Asked: Same again, this time with CCC1(CC)C(=O)C=CNC1=O [Pyrithyldione]
Given back: 0.996

Asked: # repeat for O=C1C=C(N(Cc2ccc(Cl)nc2)CC(F)F)CO1
Given back: 1.15

Asked: Now give it for C[C@]12CCC(=O)C=C1CC[C@@H]1[C@@H]2C(=O)C[C@]2(C)C(=O)CC[C@@H]12 [Adrenosterone] too.
Given back: 1.07

Asked: Query CCN(CC)CCOC(=O)C(O)(c1ccccc1)c1ccccc1 [Benactyzine hydrochloride] next
Given back: 1.07

Asked: And then Cc1cc(C)c(C2=C(OC(=O)CC(C)(C)C)C3(CCCC3)OC2=O)c(C)c1 , what is it?
Given back: 1.01

Asked: Next entry: CN1[C@@H]2CC[C@H]1C[C@@H](OC1c3ccccc3CCc3ccccc31)C2 [Deptropine citrate]
Given back: 0.928

Asked: Now try Cc1cc(C(C#N)c2ccc(Cl)cc2)c(Cl)cc1NC(=O)c1cc(I)cc(I)c1O (stereo unspecified) [Closantel] .
Given back: 0.13

---

System: Klebsiella aerogenes DSM 30053
Assay: fold change of Histamine concentration vs plate DMSO controls (fold change (ratio)); higher = more amine produced, active = hit call of the paper (significant change in both replicates, either direction)
Conditions: 20 µM; incubation time: 27 h, anaerobic, 37 °C
Consider the following compounds; for each one, report its fold change of Histamine concentration.
Answer as a number with no unit attached.

Asked: // returns reported fold change of Histamine concentration for input C=CC[C@]1(O)CC[C@H]2[C@@H]3CCC4=CCCC[C@@H]4[C@H]3CC[C@@]21C [Allylestrenol]
Given back: 0.993

Asked: And then COP(=O)(NC(C)=O)SC (stereo unspecified) , what is it?
Given back: 1

Asked: Check CNC(=O)Oc1cccc(/N=C/N(C)C)c1 too.
Given back: 1.02

Asked: Try CSc1nc(NC(C)C)nc(NC(C)C)n1 next.
Given back: 0.971

Asked: Another compound to look at: CC1(C)C(C=C(Cl)Cl)C1C(=O)OC(C#N)c1cccc(Oc2ccccc2)c1 (mixture of isomers)
Given back: 1.02

Asked: What about CC(C)N1C(=O)c2ccccc2NS1(=O)=O ?
Given back: 0.978
